Target: T1, recombinant C-terminal ApoE fragment G200-HIS (ApoE-G200-H299-10xHIS) (human, UniProt P02649 218-317)
T1 construct: also called G200-HIS fragment
T1 sequence (P02649 other isoform, or with tags, fused parts or gaps limits assumed): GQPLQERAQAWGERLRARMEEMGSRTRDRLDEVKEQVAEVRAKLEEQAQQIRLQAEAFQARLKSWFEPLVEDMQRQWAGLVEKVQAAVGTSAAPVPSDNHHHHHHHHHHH
Assay: SPR (Biacore 8K), G200-HIS amine-coupled on CM5, antibody as analyte, bivalent analyte fit (kd1)
So basically, if koff comes in under 0.004 s⁻¹ it's Criterion met, and if it's 0.004 s⁻¹ or more it's Criterion not met.

In plain terms, does 4E6, recombinant IgG2c antibody (antibody, V domains shown, also called recombinant anti-G200 antibody 4E6) VH: EVQLVESGGDLVKPGGSLKLSCAASGFTFSSYAMSWVRQSPEKRLEWVAEISGSGSRDHYTDSVTGRFTVSRDNAKNTLYLEMSSLRSEDTAIYYCARQLTGTDYYGTDYWGQGTSVTVSS VL: DVLMTQIPLSLPVSLGDQASISCRSSQSIVYSNGNTYLEWYLQRPGQSPKLLIYKVSNRFSGVPDRFSGSGSGTDFTLKISRVEAEDLGVYYCFQGSHLPYTFGGGTKLEIK come in under 0.004 s⁻¹ for koff?
Criterion not met

In plain terms, does 7B10, recombinant IgG2c antibody (antibody, V domains shown, also called 7610) VH: AVQLVESGGGLVKPGRSLKLSCAASGFTFSSYAMSWVRQFPDKRLDWVAEISSGGGSTNYLDTVTGRFTISRDNAKNTLYLEMNSLRSEDTAMYYCARQLVGTDYYGTDYWGQGTSVTVSS VL: DVLMTQTPLSLPVSLGDQASISCRSSQNIVYSNGNTYLEWYLQKPGQSPKLLIYKVSNRFSGVPDRFSGSGSGTDFTLKISRVEAEDLGVYYCFQGSHVPYTFGGGTKLEIK come in under 0.004 s⁻¹ for koff?
Criterion met

In plain terms, does 28F2, recombinant IgG2c antibody (antibody, V domains shown) VH: QIQLVQSGPDLKKPGETVKISCKASGYTFTNYAMHWMKQAPGKALKWMGWINTYTGEPTFADDFKGRFAFSLETSASTAYLQINSLKNEDMATYFCAREGYYDRSHYFDYWGQGTTLTVSS VL: DVLMTQTPLSLPVSLGDQASISCRSSLSLVHGDGNTYLEWYLQKPGQSPKLLIYKVSNRFSGVPDRFSGSGSGTDFTLKISRVEAEDLGVYYCLQGSHIPFTFGSGTKLEIK come in under 0.004 s⁻¹ for koff?
Criterion met

In plain terms, does 7C7, recombinant IgG2c antibody (antibody, V domains shown) VH: EVQLVESGGGLVKPGGSLRLSCAASGFTFSSFAMSWVRQSPERRLEWVAEISRGGGYAFYSDTVTGRFTISRDNARNTLFLEMGSLRSEDTAMYYCSRQLTGTDYYAMDYWGQGTSVTVSS VL: DVLLTQTPLSLFVSLGDQASISCRSSQSIVYTNGNTYLEWYLQKPGQSPKLLIYKVSNRFSGVPDRFSGSGSGTDFTLKISRVEAEDLGVYYCFQGSQVPYTFGGGTKLELK come in under 0.004 s⁻¹ for koff?
Criterion met

---
In plain terms, does 23D5, recombinant IgG2c antibody (antibody, V domains shown) VH: EVQLVESGGGLVKPGGSLKLSCSASGFTFSRYAMSWVRQSPEKRLEWVAEINSGGSYSFYSDTVTGRFTISRDNAKNTLFLEMSSLRSEDTAIYYCARQLSGTDYYGTDYWGQGTSVTVSS VL: DVLMTQTPLSLPVSHGDQASISCRSSQSLLYSNGNTYLEWYLQKPGQSPKLLIYKVSNRFSGVPDRFSGSGSGTDFTLKISRVEAEDLGVYYCFQGSHVPYTFGGGTKLEIK come in under 0.004 s⁻¹ for koff?
Criterion not met

In plain terms, does 17G4, recombinant IgG2c antibody (antibody, V domains shown) VH: EVQLVESGGGLVKPGGSLKLSCSASGFTFSRYAMSWVRQSPEKRLEWVAEINSGGSYSFYSDTVTGRFTISRDNAKNTLFLEMSSLRSEDTAIYYCARQLTGTDYYGTDYWGQGTSVTVSS VL: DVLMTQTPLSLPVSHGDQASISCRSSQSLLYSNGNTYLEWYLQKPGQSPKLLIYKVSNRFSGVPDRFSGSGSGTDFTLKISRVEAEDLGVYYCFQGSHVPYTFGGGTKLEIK come in under 0.004 s⁻¹ for koff?
Criterion met
